Test system: Recombinant human GSK3β (Homo sapiens)
Construct: His-tag; made in house; host or cells: Sf9 insect cells / baculovirus
Sequence (P49841 whole entry): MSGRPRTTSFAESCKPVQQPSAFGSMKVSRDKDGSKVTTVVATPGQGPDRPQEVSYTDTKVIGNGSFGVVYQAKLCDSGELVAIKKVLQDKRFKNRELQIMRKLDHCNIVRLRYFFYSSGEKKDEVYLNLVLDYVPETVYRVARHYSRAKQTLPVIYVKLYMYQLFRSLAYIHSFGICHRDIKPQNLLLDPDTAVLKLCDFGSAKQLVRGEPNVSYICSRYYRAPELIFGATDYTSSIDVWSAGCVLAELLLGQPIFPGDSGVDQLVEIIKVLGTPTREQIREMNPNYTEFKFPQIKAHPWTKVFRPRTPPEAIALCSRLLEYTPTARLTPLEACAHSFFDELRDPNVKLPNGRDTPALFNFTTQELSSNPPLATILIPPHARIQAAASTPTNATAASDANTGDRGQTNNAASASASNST
Measurement protocol: GSK-3β (Glycogen Synthase Kinase) cell free enzyme assay
Type: biochemical
Condition context: cell free enzyme assay; Examples 222-234
pIC50: −log10 of the molar value.

{"Compound": "CCOC(=O)N1CCC[C@@H](N(C)c2nc(-c3ccncn3)cc(=O)n2C)C1 [Example 230]", "pIC50": 9.02}
{"Compound": "COC(=O)N1CCCC(N(C)c2nc(-c3ccncn3)cc(=O)n2C)C1 (centres unmarked) [Example 223]", "pIC50": 8.98}
{"Compound": "COC(=O)N1CCC[C@@H](Nc2nc(-c3ccncc3)cc(=O)n2C)C1 [Example 232]", "pIC50": 9.07}
{"Compound": "CCOC(=O)N1CCC[C@@H](N(C)c2nc(-c3ccncc3)cc(=O)n2C)C1 [Example 231]", "pIC50": 8.94}
{"Compound": "CCOC(=O)N1CCC[C@@H](Nc2nc(-c3ccncn3)cc(=O)n2C)C1 [Example 229]", "pIC50": 8.70}
